# Test Target: human neutrophil elastase (HNE) (Homo sapiens)
# Construct: purchased Elastin Products
# Measurement Notes: Inhibition of HNE catalytic activity, methoxysuccinyl-ala-ala-pro-val-p-nitroanilide cleavage
# Format: biochemical
# Measurement Parameters: 1 mM substrate, 100 nM elastase; read-out: Inhibition of Catalytic Activity, expressed as IC50 for inhibition of HNE activity

| Compound String | IC50 [nM] |
| --- | --- |
| CC(C)[C@@H](NC(=O)c1ccc(C(=O)N2CCOCC2)cc1)C(=O)N1CCC[C@@H]1C(=O)N[C@@H](C(=O)C(F)(F)C(F)(F)F)C(C)C | 220 |

* * *

# Test Target: human neutrophil elastase (HNE) (Homo sapiens, UniProt P08246)
# Construct: purchased Elastin Products
# Sequence (P08246 30-247 limits assumed): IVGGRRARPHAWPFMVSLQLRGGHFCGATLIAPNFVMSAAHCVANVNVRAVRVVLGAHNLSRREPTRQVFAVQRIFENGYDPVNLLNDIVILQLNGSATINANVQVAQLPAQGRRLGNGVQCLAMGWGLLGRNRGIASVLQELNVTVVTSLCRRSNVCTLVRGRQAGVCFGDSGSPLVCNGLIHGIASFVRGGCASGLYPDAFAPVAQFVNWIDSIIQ
# Measurement Notes: ELISA quantitation of HNE after proteolysis (binding assay)
# Measurement Parameters: read-out: Binding, expressed as IC50 for inhibition of proteolysis of HNE
pIC50: −log10 of the molar value.

| Compound String | pIC50 |
| --- | --- |
| CC(C)[C@@H](NC(=O)c1ccc(C(=O)N2CCOCC2)cc1)C(=O)N1CCC[C@@H]1C(=O)N[C@@H](C(=O)C(F)(F)C(F)(F)F)C(C)C | 5.92 |
